The entries below are paired with their reported cytotoxicity at 70.5 h.
- procedure.details: Human HepG2 cell viability assay in 384 well format
- Format: toxicity, cell-based
- Parameters: dose 125 nL, time 70.5 hour; concentration not given beside the values
- measurement.setup: HepG2 cells, read-out: Inhibition
// units = %; emit number, no label

Past entries and their recorded results:
Cc1cc(C)cc(-c2cccc(CC3(C(=O)O)CCOCC3)c2)c1 :: 43.6
O=C(C1CCCC1)N1CC[C@]2(O)CCN(Cc3ncccn3)C[C@@H]2C1 :: -3.12
CCn1cc(S(=O)(=O)NC2CCCC2)cn1 :: -11.8
CSc1nnc(CNC(=O)Nc2ccccc2F)n1C :: -7.23
COc1ccc(C(C)(C)C(=O)NCc2n[nH]c(=O)[nH]2)cc1 :: -1.62

Next up:
Consider the compound shown here: COC1CCC(N(C)c2ccnc(N(C)C)n2)CC1 (stereo unspecified) What is its recorded cytotoxicity at 70.5 h?
-7.23
